test-summary: Cellular viability qHTS for adrenocortical cancer (ACC) cell line NCI-H295R (AID 1963990); also: nearly all actives have a fitted effect of over 60% in size
stated-conditions: CellTiter-Glo ATP luminescence, 48 h; series mostly up to 46.1 µM
Records with an inconclusive call do not appear. Calls of active or inactive are those of the source. Calls follow the shape of the dose curve; as a rule, active = well fitted cell-killing curve with a large enough effect; inconclusive = small, poorly fitted or top-dose-only effect; inactive = flat fitted curve, though single readings scatter.
Outcome codes: active, inactive

compound: COc1cccc(-c2cc(=O)c3ccccc3o2)c1N
classification: inactive
//
compound: COc1cc2c(Oc3ccc4[nH]c(C)cc4c3F)ccnc2cc1OCC1(N)CC1
classification: active
//
compound: Cc1nc(-c2cn3c(n2)-c2ccc(-c4cnn(C(C)(C)C(N)=O)c4)cc2OCC3)n(C(C)C)n1
classification: active
//
compound: O=C(O)CCNc1cc(N2CCc3ccccc3CC2)nc(-c2cccnc2)n1
classification: inactive
//
compound: S=P(N1CC1)(N1CC1)N1CC1
classification: inactive
//
compound: Cc1c(NC(=O)c2cccnc2)c(=O)n(-c2ccccc2)n1C
classification: inactive
//
compound: C[C@]12CC[C@@H]3c4ccc(O)cc4CC[C@H]3[C@@H]1CC[C@@H]2OC(=O)CCC1CCCC1
classification: inactive
//
compound: CC(=O)OCC[N+](C)(C)C
classification: inactive
//
compound: CCOCC(O)COc1ccc(NC(=O)CC[S+](C)C)cc1 (stereo not given)
classification: inactive
//
compound: C/C=C1\NC(=O)[C@H]2CSSCC/C=C\[C@H](CC(=O)N[C@H](C(C)C)C(=O)N2)OC(=O)[C@H](C(C)C)NC1=O
classification: active

###

test-summary: Quantitative highthroughput screen to assess conditional lethalithy of P12 Ichikawa cells grown in Human Plasma-Like Medium with dialyzed fetal bovine serum (HPLM+ds) (AID 1963879); also: nearly all actives have a fitted effect of over 35% in size
stated-conditions: ATP luminescence, 48 h; viability; series mostly up to 45.8 µM
Records with an inconclusive call do not appear. Calls of active or inactive are those of the source. Calls come from the whole dose curve; as a rule, active = well fitted cell-killing curve with a large enough effect; inconclusive = small, poorly fitted or top-dose-only effect; inactive = flat fitted curve, though single readings scatter.
Outcome codes: label 1 for active, label 0 for inactive

structure-notation: C[C@@H](Oc1cc(-n2cnc3ccc(CN4CCN(C)CC4)cc32)sc1C(N)=O)c1ccccc1C(F)(F)F
classification: label 1
--
structure-notation: COCCCCC(=NOCCN)c1ccc(C(F)(F)F)cc1
classification: label 0
--
structure-notation: Cc1cccc(Nc2nc(N[C@@H]3CCCC[C@H]3N)ncc2C(N)=O)c1
classification: label 1
--
structure-notation: CCOC(=O)C1=C(O)C(=O)N(Cc2ccccc2)C1
classification: label 0
--
structure-notation: CCOc1ccccc1N=Nc1c(C)[nH]n(-c2nc(-c3ccccc3)cs2)c1=O
classification: label 1
--
structure-notation: C[C@](N)(Cc1ccc(O)c(O)c1)C(=O)O
classification: label 0
--
structure-notation: COc1ccc(-c2ccc3c(N4CCOC[C@H]4C)nc(N4CCOC[C@H]4C)nc3n2)cc1CO
classification: label 1
--
structure-notation: NC[C@H]1O[C@H](O[C@@H]2[C@@H](O)[C@@H](O[C@H]3O[C@H](CO)[C@@H](O)[C@H](N)[C@@H]3O)[C@H](N)C[C@@H]2N)[C@H](O)[C@@H](O)[C@H]1O
classification: label 0
--
structure-notation: NC1=N[C@H]2[C@H](CS[C@H]2CCCCC(=O)O)N1
classification: label 0

###

test-summary: Viability qHTS for spleen associated tyrosine kinase inhibitor (SYKi) drug resistant MV4-11 cells (AID 1963824); also: nearly all actives have a fitted effect of over 35% in size
stated-conditions: SYKi-resistant MV4-11 viability, CellTiter-Glo, 72 h; series mostly up to 45 µM
Results filed as inconclusive are left out. Activity calls are given as the source filed them. Calls come from the whole dose curve; as a rule, active = well fitted cell-killing curve with a large enough effect; inconclusive = small, poorly fitted or top-dose-only effect, or effect the other way; inactive = no such curve, though single readings can be large or run the other way. Peptide text beside a SMILES is read from it.
Outcome codes: Yes for active, No for inactive

compound: CC(C)(O)C1CCC(Nc2ccc3ncc(-c4cccc(C(F)(F)F)c4)n3n2)CC1 (centres undefined)
classification: Yes
//
compound: CC(C)COC(=O)c1ccc(N)cc1
classification: No
//
compound: CN(C)CCCNc1nc(CN2CCN(C(c3ccc(Cl)cc3)c3ccc(Cl)cc3)CC2)nc2ccccc12
classification: Yes
//
compound: CC1(C)OCCn2c1nc1c(N3CCOCC3)nc(-c3cnc(N)nc3)nc12
classification: Yes
//
compound: Cc1ccc(NC(=O)NCc2ccc3c(c2)CN(C2CCC(=O)NC2=O)C3=O)cc1Cl (centres undefined)
classification: Yes
//
compound: O=C1NC(Cc2ccccc2)C(=O)N2CCCC12 (centres undefined)
classification: No
//
compound: CCn1c(-c2nonc2N)nc2c(C#CCO)ncc(OCCCN)c21
classification: Yes
//
compound: C1CCN2CC3C[C@@H](CN4CCCC[C@@H]34)[C@H]2C1
classification: No
//
compound: COC(=O)[C@H](Cc1ccccc1)NC(=O)[C@@H](N)CC(=O)O (H-Asp-Phe-OMe)
classification: No
//
compound: CCC1(c2cnc[nH]2)Cc2ccccc2C1
classification: No
//
compound: C[C@@H]1[C@H](O)[C@@H]2OC(=O)C3=C2[C@H](CCC3)[C@@]12C[C@@H](c1ccoc1)OC2=O
classification: No
//
compound: COC(=O)C1=CO[C@@H](O[C@@H]2O[C@H](CO)[C@@H](O)[C@H](O)[C@H]2O)/C(=C\CO)[C@@H]1CC(=O)OCCc1ccc(O)cc1
classification: No
//
compound: COc1nc(C)cnc1NS(=O)(=O)c1cccnc1-c1ccc(-c2nnco2)cc1
classification: No
//
compound: COc1ccc(CCO[C@@H]2CCCC[C@H]2N2CC[C@@H](O)C2)cc1OC
classification: No
//
compound: Oc1ccc(Nc2nc(-c3ccc(Cl)cc3)cs2)cc1
classification: Yes
//
compound: CC(=O)N[C@@H](CC(=O)O)C(=O)N[C@@H](CCC(=O)O)C(=O)N[C@H](C(=O)N[C@@H](CC(=O)O)C(=O)Nc1ccc2c(C)cc(=O)oc2c1)C(C)C
classification: Yes
//
compound: O=C(CCCCCCC(=O)Nc1cccnc1)NO
classification: Yes
//
compound: CO[C@@H]1C(N(C)C(=O)c2ccccc2)C[C@H]2O[C@]1(C)n1c3ccccc3c3c4c(c5c6ccccc6n2c5c31)C(=O)NC4=O (some centres undefined)
classification: Yes
//
compound: C=C1CCC2[C@](C)(CO)C(O)CC[C@]2(C)C1C/C=C1/C(=O)OCC1O (some centres undefined)
classification: Yes
//
compound: NS(=O)(=O)c1ccc(N=Nc2c(O)[nH]c3ccc(Br)cc23)cc1
classification: Yes
//
compound: C/C=C1\[C@H](O[C@@H]2O[C@H](CO)[C@@H](O)[C@H](O)[C@H]2O)OC=C(C(=O)OC)[C@H]1CC(=O)OC
classification: No
//
compound: CC(=O)c1ccc2c(c1)N(CCCN1CCC(CCO)CC1)c1ccccc1S2
classification: Yes
//
compound: NCC1CCC(C(=O)O)CC1 (centres undefined)
classification: No
//
compound: Nc1nc2c(ncn2[C@@H]2O[C@H](CO)[C@@H](O)[C@H]2O)c(=O)[nH]1
classification: No
//
compound: CC(=O)OC[C@@]12C(=O)C[C@@H](C)[C@]3(C[C@@H](c4ccoc4)OC3=O)[C@H]1CC[C@H](OC(C)=O)[C@]21CO1
classification: No
//
compound: CC(O)/C=C/C1(O)C2(C)COC1(C)CC(O)C2 (centres undefined)
classification: No
//
compound: C=CCc1ccc(O[C@@H]2O[C@H](CO[C@@H]3O[C@H](CO)[C@@H](O)[C@H](O)[C@H]3O)[C@@H](O)[C@H](O)[C@H]2O)c(O)c1
classification: No
//
compound: Cc1ccc(C(=O)Nc2ccc(CN3CCN(C)CC3)c(C(F)(F)F)c2)cc1C#Cc1cnc2cccnn12
classification: Yes
//
compound: CC(C)(C(=O)c1cccnc1)c1cccnc1
classification: No
//
compound: CO[C@H]1/C=C/O[C@@]2(C)Oc3c(C)c(O)c4c(O)c(c(/C=N/N5CCN(C)CC5)c(O)c4c3C2=O)NC(=O)/C(C)=C\C=C\[C@H](C)[C@H](O)[C@@H](C)[C@@H](O)[C@@H](C)[C@H](OC(C)=O)[C@@H]1C
classification: Yes
//
compound: O=C(Nc1ccc(Cl)cc1)Nc1cccc(-c2cccc(N3CCCC3)n2)c1
classification: Yes
//
compound: CC1(C)OC(=O)NC1=O
classification: No
//
compound: Nc1nc2c(c(=O)[nH]1)N1CN(c3ccc(C(=O)N[C@@H](CCC(=O)O)C(=O)O)cc3)CC1CN2 (some centres undefined)
classification: Yes
//
compound: CCC(C)(OC(C)=O)C(=O)O[C@H]1[C@H](OC(C)=O)[C@]2(CO)[C@H](O)[C@H](O)[C@]3(C)C(=CCC4[C@@]5(C)CC[C@H](O[C@@H]6O[C@H](C(=O)O)[C@@H](O)[C@H](O[C@@H]7OC[C@H](O)[C@H](O[C@@H]8OC[C@H](O)[C@H](O)[C@H]8O)[C@H]7O)[C@H]6O[C@@H]6O[C@H](CO)[C@@H](O)[C@H](O)[C@H]6O)C(C)(C)C5CC[C@]43C)[C@@H]2CC1(C)C (some centres undefined)
classification: Yes
